Each recorded value in this set is attributed to patent US9737504B2.

Target: UniProtKB Q02127
Sequence (Q02127 whole entry): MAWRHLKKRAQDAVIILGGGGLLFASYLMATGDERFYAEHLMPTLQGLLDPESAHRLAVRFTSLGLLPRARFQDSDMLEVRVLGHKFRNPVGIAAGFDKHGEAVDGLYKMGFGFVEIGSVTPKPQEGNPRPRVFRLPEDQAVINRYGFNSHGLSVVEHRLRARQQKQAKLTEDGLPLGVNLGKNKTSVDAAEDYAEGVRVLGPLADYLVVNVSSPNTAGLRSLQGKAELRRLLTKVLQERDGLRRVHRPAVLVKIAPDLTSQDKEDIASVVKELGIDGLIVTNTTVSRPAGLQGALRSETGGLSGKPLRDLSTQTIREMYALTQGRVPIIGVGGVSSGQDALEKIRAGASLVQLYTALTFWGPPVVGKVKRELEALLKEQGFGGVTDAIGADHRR
Test: Measurement of DHOD inhibitory activity (DCIP reduction, end point assay)
Format: biochemical
Conditions: read-out: IC50 (nM) human DHOD (HsDHOD)
Description: The compounds of the present invention were used and measured for their DHOD inhibitory activity at concentrations of 200 nM and 1000 nM. Reduction of DCIP was measured at 600 nm over 20 minutes.
Mark 1.0 only for IC50 values smaller than 60 nM; exact matches and larger values are 0.0.

# count of solved cases: 3
C/C(=C\Cc1c(O)c(Cl)c(C)c(C=O)c1O)CC/C=C(\C)COC1CCCO1 (stereo not shown); 1.0
COC(C)(C)CCC/C(C)=C/Cc1c(O)c(Cl)c(C)c(C=O)c1O; 0.0
C/C(=C\COC(=O)C(C)C)CC/C(C)=C/Cc1c(O)c(Cl)c(C)c(C=O)c1O; 1.0

Find out if reported IC50 for C/C(=C\CC/C(C)=C/Cc1c(O)c(Cl)c(C)c(C=O)c1O)CO is less than 60 nM
1.0

Confirm or reject: IC50 of C/C(=C\Cc1c(O)c(Cl)c(C)c(C=O)c1O)CC/C=C(\C)[C@@H]1CC(=O)C(C)(C)O1 (racemic) lies strictly below 60 nM
1.0

Please determine if C/C(=C\Cc1c(O)c(Cl)c(C)c(C=O)c1O)CC/C=C(\C)COC(=O)C(C)(C)C is below 60 nM in terms of IC50.
0.0

Strictly below 60 nM: is that where IC50 of Cc1c(Cl)c(O)c(/C=C/CCCCCCOC(=O)C(C)C)c(O)c1C=O sits?
0.0

# check: IC50 < 60 nM for C/C(=C\Cc1c(O)c(Cl)c(C)c(C=O)c1O)CC/C=C(\C)C(C)O (stereo not shown)
0.0

Say whether its IC50 is strictly beneath 60 nM. Entry: CC(C)=CCC/C(C)=C/Cc1c(O)c(Cl)c(C)c(C=O)c1O
0.0

API: query returns whether the molecule falls strictly under 60 nM in IC50. Query: C/C(=C\Cc1c(O)c(Cl)c(C)c(C=O)c1O)CC/C=C(\C)CCC1OC1(C)C (stereo not shown)
1.0

Determine if C/C(=C\Cc1c(O)c(Cl)c(C)c(C=O)c1O)CC/C=C/COC(=O)C(C)(C)C shows IC50 strictly lower than 60 nM.
0.0

Strictly below 60 nM: is that where IC50 of CC(=O)/C(C)=C/CC/C(C)=C/Cc1c(O)c(Cl)c(C)c(C=O)c1O sits?
1.0

* * *

readout label: melting point

Cc1c(Cl)c(O)c(CCCCCCCCCC(=O)OC(C)C)c(O)c1C=O; 49 °C
Cc1c(Cl)c(O)c(CCCCCCCCCOC(=O)C(C)(C)C)c(O)c1C=O; 62 °C
C/C(=C\Cc1c(O)c(Cl)cc(C=O)c1O)CC/C=C(\C)C1CC(=O)C(C)(C)O1 (stereo not drawn); 70 to 72 °C
CCCCCC(C)CCc1c(O)c(Cl)c(C)c(C=O)c1O (stereo not drawn); 65 to 67 °C
CC(=O)/C(C)=C/CC/C(C)=C/Cc1c(O)c(Cl)c(C)c(C=O)c1O; 119 to 120 °C
Cc1c(Cl)c(O)c(CCCCCCCCOC(=O)C(C)(C)C)c(O)c1C=O; 70 to 71 °C
C/C(=C\COC(=O)C(C)C)CC/C(C)=C/Cc1c(O)c(Cl)c(C)c(C=O)c1O; 62 to 63 °C
CC(C)=CCC/C(C)=C/Cc1c(O)ccc(C=O)c1O; 85 °C
C/C(=C\Cc1c(O)c(Cl)c(C)c(C=O)c1O)CC/C=C(\C)C1OC(C)C(C)O1 (stereo not drawn); 35 to 36 °C
C/C(C=O)=C\CC/C(C)=C/Cc1c(O)c(Cl)c(C)c(C=O)c1O; 111.2 to 111.4 °C

Request the reported melting point associated with COC(=O)c1c(C)cc(O)c(C/C=C(\C)CCC=C(C)C)c1O
46 to 47 °C

Sample C/C(=C\CC/C(C)=C/Cc1c(O)c(Cl)c(C)c(C=O)c1O)CO — what was its melting point?
99 to 99.7 °C
